substrate: NP of A/Wisconsin/67/2005(H3N2/H3W) (influenza A virus A/Wisconsin/67/2005 (H3N2)); assay: sandwich ELISA, capture IgG; NP of lysed virus titrated; HRP-NP17 detection
Sequence (P03466 whole entry): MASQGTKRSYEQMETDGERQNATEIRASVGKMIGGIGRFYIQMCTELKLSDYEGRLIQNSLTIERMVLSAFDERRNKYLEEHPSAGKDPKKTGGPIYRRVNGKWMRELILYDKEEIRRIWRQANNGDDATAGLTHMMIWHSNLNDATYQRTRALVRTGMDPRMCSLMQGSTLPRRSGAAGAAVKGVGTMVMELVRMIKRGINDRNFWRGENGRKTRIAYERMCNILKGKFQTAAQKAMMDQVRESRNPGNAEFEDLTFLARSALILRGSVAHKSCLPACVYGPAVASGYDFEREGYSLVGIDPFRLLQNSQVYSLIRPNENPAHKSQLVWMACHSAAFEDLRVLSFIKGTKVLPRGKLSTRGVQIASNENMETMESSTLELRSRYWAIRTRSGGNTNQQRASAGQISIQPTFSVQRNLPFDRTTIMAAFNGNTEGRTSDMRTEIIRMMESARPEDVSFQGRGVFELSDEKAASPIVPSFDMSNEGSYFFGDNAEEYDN
measurement name: pEC50
The quantity pEC50 is defined as the negative base-10 logarithm of the molar concentration.

NP3 (antibody, V domains shown) VH: EVQLVESGGGLVQPGGSLRLSCAASGFTISNYGIHWVRQAPGKGLEWVAGIWPFGGFTSYADSVKGRFTISADTSKNTAYLQMNSLRAEDTAVYYCARFHWNDHGYMDYWGQGTLVTVSS VL: DIQMTQSPSSLSASVGDRVTITCRASQDVGWYVAWYQQKPGKAPKLLIYSTTGLYSGVPSRFSGSGSGTDFTLTISSLQPEDFATYYCQQYYNYPITFGQGTKVEIKR	9.08
NP15 (antibody, V domains shown) VH: EVQLVESGGGLVQPGGSLRLSCAASGFTISNWYIHWVRQAPGKGLEWVAGIGPYGGSTYYADSVKGRFTISADTSKNTAYLQMNSLRAEDTAVYYCARFHWDHLHGMDYWGQGTLVTVSS VL: DIQMTQSPSSLSASVGDRVTITCRASQDVDNNVAWYQQKPGKAPKLLISYSTGLYSGVPSRFSGSGSGTDFTLTISSLQPEDFATYYCQQYWNYPITFGQGTKVEIKR	9.11

Proceeding to the next binder to report its pEC50.
The value of pEC50 measured for the binder NP5 (antibody, V domains shown) VH: EVQLVESGGGLVQPGGSLRLSCAASGFTISNGSIHWVRQAPGKGLEWVAGIWPSGGSTSYADSVKGRFTISADTINNSAYLQMNSLRAEDTAVYYCARWNYWGQGTLVTVSS VL: DIQMTQSPSSLSASVGDRVTITCRASQDVGWSVAWYQQKPGKAPKLLIYGSRWLYSGVPSRFSGSGSGTDFTLTISSLQPEDFATYYCQQGYNGPLTFGQGTKVEIKR turned out to be 9.06
